Reported pIC50 values for a set of binders
biological target: T1, human CCR8 (human, UniProt P51685 1-355); test: FACS, competition with AF647-human CCL1 on CHO-K1-human CCR8 cells
T1 construct: whole, on cells; also called hCCR8
T1 sequence (P51685 whole entry): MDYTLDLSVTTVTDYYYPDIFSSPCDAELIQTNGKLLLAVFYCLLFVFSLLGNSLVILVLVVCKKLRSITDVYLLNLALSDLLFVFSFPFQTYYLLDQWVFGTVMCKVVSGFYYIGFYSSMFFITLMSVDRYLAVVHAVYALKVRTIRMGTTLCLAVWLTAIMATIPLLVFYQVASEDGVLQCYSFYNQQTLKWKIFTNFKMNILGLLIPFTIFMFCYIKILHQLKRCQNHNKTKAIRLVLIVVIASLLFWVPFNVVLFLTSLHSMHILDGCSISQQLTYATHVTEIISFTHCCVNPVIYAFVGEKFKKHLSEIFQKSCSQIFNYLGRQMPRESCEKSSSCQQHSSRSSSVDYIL
Convention used: pIC50 is expressed as -log10 of the molar concentration.

So what does the record say about pIC50 for Hu149-4 (antibody, human IgG1, V domains shown, humanized, human IgG1; also called Hu149-4 HuIgG1) VH: EVQLVESGGGLVQPGGSLKLSCAASGFTFNTYAMNWVRQASGKGLEWVGRIRSKSNFYATYYAASVKGRFTISRDDSKNTAYLQMNSLKTEDTAVYYCTRGRDYGSSYAMDYWGQGTLVTVSS VL: DIVMTQSPLSLPVTPGEPASISCRSSKSLLHSNANTYLYWFLQKPGQSPQLLIYRMSNLASGVPDRFSGSGSGTDFTLKISRVEAEDVGVYYCMQHLEYPLTFGGGTKVELK ? 9.86

Now the binder Hu149-3 (antibody, V domains shown, humanized IgG) VH: EVQLVESGGGLVQPGGSLKLSCAASGFTFNTYAMNWVRQASGKGLEWVGRIRSKSNFYATAYAASVKGRFTISRDDSKNTAYLQMNSLKTEDTAVYYCVRGRDYGSSYAMDYWGQGTLVTVSS VL: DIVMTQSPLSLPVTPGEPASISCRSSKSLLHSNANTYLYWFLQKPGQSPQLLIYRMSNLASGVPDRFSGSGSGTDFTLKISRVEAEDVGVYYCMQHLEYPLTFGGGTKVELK 9.32

Now the binder CM149 (antibody, V domains shown, CM149 is not defined in words; also called CM149 HuIgG1; parental antibody CM149) VH: EVQLVESGGGLVQPKGSLKLSCAASGFTFNTYAMNWVRQAPGKGLEWVARIRSKSNFYATYYADSVKDRFTISRDDSQDMLYLQMNILKTEDTAIYYCVRGRDYGSSYAMDYWGQGTSVTVSS VL: DIVMTQAAPSVPVTPGESVSISCRSSKSLLHSNANTYLYWFLQRPGQSPQLLIYRMSNLASGVPDRFSGSGSGTAFTLRISRVEAEDVGVYYCMQHLEYPLTFGAGTKLELK 9.17
